The origin of these recorded values is PubChem BioAssay (NCI).

# Test system: HL-60(TB) leukemia
# assay.procedure: NCI tumour cell line growth inhibition, 48 h
Listed here: items and their measured TGI.

Examples from the recorded data:
{"compound": "COC(=O)CC(NC(=O)OCc1ccccc1)C(C(C)=O)C(=O)OCc1ccccc1 (stereo not given)", "reading": "> 31.6 µM"}
{"compound": "CC(=O)c1ccc2c(c1)c1cc(C(C)=O)ccc1n2CCNC(C)C", "reading": "2.67 µM"}
{"compound": "CC(N)C(Cc1ccc(Cl)cc1)c1ccc(Cl)cc1 (stereo not given)", "reading": "26.1 µM"}
{"compound": "O=C(NCCCCCCCCCCCCNC(=O)c1cccc2ccccc12)c1cccc2ccccc12", "reading": "> 80.1 µM"}

Please look up its TGI: `COc1cc(NS(C)(=O)=O)ccc1Nc1cc[nH]c2ccc3nccc3c12`
53.2 µM

###

# Test system: SF-268 CNS
# assay.procedure: NCI tumour cell line growth inhibition, 48 h
quantity.name: TGI

{"compound": "CCOc1cc(C2SCC(=O)N2c2ccc(Oc3ccc(Cl)cc3)c(Cl)c2)ccc1O (stereo not given)", "TGI": "30.9 µM"}

I'd like to know its TGI. The compound in question is `CN(C)CCCc1cccc2[nH]c3c(c12)CN(C)CC3`
> 100 µM

And `O=c1[nH]c2nnc(COc3ccc(Cl)cc3Cl)n2nc1Cc1ccccc1` ?
> 100 µM

Also `COc1ccc(/C=C(/C#N)C(N)=O)c(OC)c1` , if possible.
> 100 µM

Field entry: CC(C)C1=CC(=O)C(C)(C2C(O)CC3(C)C4CC=C5C(CCC(OC6OC(CO)C(O)C(O)C6OC6OC(C)C(O)C(O)C6O)C5(C)C)C4(C)C(=O)CC23C)O1 (stereo not given)
> 100 µM

Field entry: `Cc1cn([C@@H]2C[C@@H]2CO)c(=O)[nH]c1=O`
> 100 µM

Thanks! And `O=c1[nH]c(=O)n(COCc2ccccc2)c2ccsc12` ?
> 100 µM

Repeat for the following compound: COc1cc(C2Cc3ncccc3-c3[nH]c(=O)c4cccnc4c32)cc(OC)c1OC (stereo not given)
> 100 µM

Next entry: `Cc1cc(S(=O)(=O)Nc2nc3ccccc3o2)c(SCc2ccccc2)cc1Cl`
47.7 µM

Another compound: `CN(C)CCCN1C(=S)N(CCCN(C)C)c2c3ccccc3nc3c([N+](=O)[O-])ccc1c23`
32.5 µM

###

# System: MDA-MB-435
# assay.procedure: NCI tumour cell line growth inhibition, 48 h; in the data active means GI50 below about 0.43 µM; inactive means the rest
Outcome field: choose from YES (active), NO (inactive)

Worked examples, 6 compounds total:
{"chemical.string": "COC[C@@H](N=C1NC(=O)/C(=C/c2ccc3ncccc3c2)S1)c1ccccc1", "test.target": "MDA-MB-435", "class": "NO"}
{"chemical.string": "CCN(CC)c1ccc(/C=N/NC(=O)CSc2nc3ccccc3c(=O)n2CCc2ccc(S(N)(=O)=O)cc2)c(O)c1", "test.target": "MDA-MB-435", "class": "NO"}
{"chemical.string": "O=C(Oc1cccc2cccnc12)c1cc2c(cc1Cl)SC(N(c1ccc(F)cc1)S(=O)(=O)c1ccc(Br)s1)=NS2(=O)=O", "test.target": "MDA-MB-435", "class": "NO"}
{"chemical.string": "COc1cc(Nc2nc3cc(N)cc(N)c3nc2-c2ccccc2)cc(OC)c1OC", "test.target": "MDA-MB-435", "class": "NO"}
{"chemical.string": "CCN(CCCN(C)C)Cc1cc(I)cc(C)c1O", "test.target": "MDA-MB-435", "class": "NO"}
{"chemical.string": "O=S(=O)(NCCCNc1nccc(-c2c(-c3ccc(O)cc3)nc3sccn23)n1)c1ccc(F)cc1", "test.target": "MDA-MB-435", "class": "YES"}

What is the recorded call for this compound in the test? `Cc1cc(S(=O)(=O)Nc2nc3ccccc3o2)c(SCc2ccccc2)cc1Cl`
NO

###

# Tested on: SK-MEL-2 melanoma
# assay.procedure: NCI tumour cell line growth inhibition, 48 h
quantity.name: TGI

Examples with answers:
{"compound": "CC(=O)c1ccc2c(c1)c1cc(C(C)=O)ccc1n2CCNC(C)C", "TGI": "2.23 µM"}
{"compound": "Cc1cc(S(=O)(=O)Nc2nc3ccccc3o2)c(SCc2ccccc2)cc1Cl", "TGI": "> 100 µM"}
{"compound": "COc1ccc(C2N(c3ccc(F)cc3)C(=O)N3C(c4ccc(OC)cc4)N(c4ccc(F)cc4)C(=O)N23)cc1 (stereo not given)", "TGI": "> 100 µM"}

Lab note: next compound to report on.
Requested read-out: TGI. Entry: C[N+]1(CCC(=O)c2ccco2)CC2CCC(CC2)C1 (stereo not given)
> 100 µM

###

# Test system: COLO 205 colon
# assay.procedure: NCI tumour cell line growth inhibition, 48 h
Attribute: TGI
Report the figure in µM without appending any unit label.

Solved entries:
{"compound": "O=Nc1ccc(O)c(=O)cc1", "test.target": "COLO 205 colon", "TGI, µM": 3.45}
{"compound": "CC(=O)O[C@H]1C(=O)[C@@]2(C)C(C(OC(=O)c3ccccc3)[C@]3(O)C[C@H](OC(=O)C(OC(=O)CCCC(=O)NCCCN(C)C)C(NC(=O)c4ccccc4)c4ccccc4)C(C)=C1C3(C)C)C1(OC(C)=O)COC1C[C@@H]2O (stereo partly drawn)", "test.target": "COLO 205 colon", "TGI, µM": 0.0147}

Give the measured TGI of Cc1c(Cl)cccc1NC(=O)C(=O)C(C(=O)c1ccccc1-c1ccccc1)C1OC(=O)c2ccccc21 (stereo not drawn) .
39.7

Same question for `CCOC(=O)c1ccc(NC(=O)Nc2nncs2)cc1` please.
2.63

How about `Cc1nc(-n2nc(-c3ccccc3)cc2-c2ccccc2)sc1C(=O)/C=C/c1ccc(/C=C/C(=O)c2sc(-n3nc(-c4ccccc4)cc3-c3ccccc3)nc2C)cc1` ?
39.1

###

# Tested on: K-562 leukemia
# assay.procedure: NCI tumour cell line growth inhibition, 48 h
Listing of recorded TGI by entry.

Before answering, review these 6 worked examples.
{"compound": "O=C(Cc1ccc(/C=C/C(=O)c2ncc[nH]2)cc1)Nc1ccc(F)cc1", "TGI": "> 33.3 µM"}
{"compound": "O=C1CSCc2sccc21", "TGI": "> 100 µM"}
{"compound": "COC(=O)CC(NC(=O)OCc1ccccc1)C(C(C)=O)C(=O)OCc1ccccc1 (stereo not given)", "TGI": "> 31.6 µM"}
{"compound": "CN1C(=O)CCC1(O)C1C=CC=CC1 (stereo not given)", "TGI": "> 100 µM"}
{"compound": "CC(=O)Nc1ccc(NCC(=O)Nn2cnc3ccc(S(=O)(=O)Nc4ccc(NC(C)=O)cc4)cc3c2=O)cc1", "TGI": "> 100 µM"}
{"compound": "COc1ccc(C2=N[C@@H](Cc3ccccc3)C(=O)Nc3ccsc32)cc1", "TGI": "27 µM"}

// query TGI value for entry `Cc1ccn2c(=O)cc(CN3CCOCC3)nc2c1`
> 100 µM

Here is the next compound: COc1ccc(C2CC(c3cccc(Nc4ccnc5cc(Cl)ccc45)c3)=NN2C=O)cc1 (stereo not given)
> 100 µM

// query: `Cc1nc([P+](c2ccccc2)(c2ccccc2)c2ccccc2)c(Sc2sc(-c3ccccc3)nc2[P+](c2ccccc2)(c2ccccc2)c2ccccc2)o1`
5.9 µM

// same read-out, input: `N#CCCN(c1ccc(C=Nc2ccccc2)cc1)S(=O)(=O)c1ccccc1`
> 100 µM

###

# System: SNB-75 CNS
# assay.procedure: NCI tumour cell line growth inhibition, 48 h
Starred links: 1 amine or outer side, 2 acyl side, 3 side chain; linkers in the order of their positions; H or OH if unused. Positions of bridges follow the written chain, without caps; N, C: chain ends. Non-standard residues stand in square brackets, D forms with d. Residues, ends and D or L forms follow the SMILES beside them. Chains are numbered I, II in the order given. Actinocin(1to9) = Cc1c2oc3c(C)ccc(C(=O)[*:2])c3nc-2c(C(=O)[*:1])c(N)c1=O; NMeV = CN[CH](C(=O)O)C(C)C; Sar = CNCC(=O)O
Entries and their measured TGI follow.
Please give a number only; it is taken to be in µM.

See these solved cases before continuing.
{"molecule": "Cc1c(Cl)cccc1NC(=O)C(=O)C(C(=O)c1ccccc1-c1ccccc1)C1OC(=O)c2ccccc21 (stereo unspecified)", "test.target": "SNB-75 CNS", "unit.tag": "µM", "TGI": 42.1}
{"molecule": "CCC(C)C1NC(=O)C(NC(=O)c2c3nc4c(C(=O)NC5C(=O)NC(C(C)CC)C(=O)N6CCCC6C(=O)N(C)CC(=O)N(C)C(C(C)C)C(=O)OC5C)ccc(C)c4oc-3c(C)c(=O)c2N)C(C)OC(=O)C(C(C)C)N(C)C(=O)CN(C)C(=O)C2CCCN2C1=O (stereo unspecified) (I: TIP[Sar][NMeV] / II: TIP[Sar][NMeV]; ester I:1-I:C, II:1-II:C; linker I:N-II:N via Actinocin(1to9); configuration not given here)", "test.target": "SNB-75 CNS", "unit.tag": "µM", "TGI": 0.0329}

Sample `O=C(N/C(=C\c1ccc(Cl)cc1)c1nc2ccccc2[nH]1)c1ccccc1` — what was its TGI?
47.2
